Assay: Mouse liver microsomal stability of compound in microsomal protein, PBS buffer pH 7.4, NADPH, glucose-6-phosphate and glucose-6-phosphate dehydrogenase media. Aliquotes were taken at 5 time points and after stopping the reaction, supernatants were analyzed using HPLC coupled with a tandem mass spectrometer. The elimination constant, half-life, and intrinsic clearance are determined as results using linear regression analysis. The assay has been performed by Enamine biological services, Bienta Ltd.The protocol is publicly available: dx.doi.org/10.17504/protocols.io.5qpvokdb9l4o/v1
Type: ADME, microsomes, Microsome
Settings: liver microsomes
measurement label: microsomal CLint (µL/min/mg)
Could you give me the number in µL/min/mg? Just the number is fine.

// returns reported microsomal CLint for input `CC(C)[C@H](Nc1ncnc2[nH]c(C(=O)N[C@@H]3CCN(C)C3)cc12)c1ccc2c(c1)S(=O)(=O)CCC2`
3

What microsomal CLint value was documented for this molecule, `CC(C)[C@H](Nc1ncnc2[nH]c(-c3cnn(C)c3C#N)cc12)c1ccc2c(c1)S(=O)(=O)CCC2` ?
311

// returns reported microsomal CLint for input `CC(C)[C@H](Nc1ncnc2[nH]c(-c3cnn(C)c3C#N)cc12)c1ccc2c(c1)OCCO2`
257

What value of measured microsomal CLint is listed for `CC(C)[C@@H](Nc1ncnc2[nH]c(-c3cnn(C)c3C#N)cc12)c1ccc2c(c1)NC(=O)CO2` ?
177

# query: microsomal CLint of entry `CC(C)[C@@H](Nc1ncnc2[nH]c(-c3cnn(CCC(N)=O)c3)cc12)c1ccc2c(c1)OCCO2`
62

Looking for the measured microsomal CLint of `CNC(=O)Cn1cc(-c2cc3c(N[C@H](c4ccc5c(c4)S(=O)(=O)CCC5)C(C)C)ncnc3[nH]2)cn1` , can you help?
111

Sample `CC(C)[C@@H](Nc1ncnc2[nH]c(-c3ccc4cncn4c3)cc12)c1ccc2c(c1)S(=O)(=O)CCC2` — what was its microsomal CLint?
170

Please look up its microsomal CLint: `CC(C)[C@@H](Nc1ncnc2[nH]c(-c3cnn(C)c3C#N)cc12)c1ccc2c(c1)OCCO2`
218

Find the recorded microsomal CLint belonging to `Cc1nn(C)cc1-c1cc2c(N[C@@H](c3ccc4c(c3)S(=O)(=O)CCC4)C(C)C)ncnc2[nH]1` and report it.
390

Suppose we examine the molecule `CC(C)[C@@H](Nc1ncnc2[nH]c(-c3cnn(C)c3)cc12)c1ccc2c(c1)S(=O)(=O)CCC2` ; what microsomal CLint value has been reported?
155

# input molecule: `COc1ccc([C@@H](CC(=O)O)NC(=O)c2ncnc3[nH]ccc23)cc1` ; wanted: its microsomal CLint
2

microsomal CLint lookup needed for `C[C@H](C(=O)O)[C@@H](NC(=O)c1ncnc2[nH]ccc12)c1ccc(Br)cc1` , thanks.
4

Would you mind telling me what microsomal CLint value was observed for COc1ccc([C@@H](NC(=O)c2[nH]cnc3nccc2-3)C(C)c2nnn[nH]2)cc1 (some centres undefined) ?
1

Report microsomal CLint for `COc1ccc2c(c1)CCN(c1ncnc3[nH]ccc13)[C@H]2C(C)C` please.
321

microsomal CLint for `CC(C)[C@@H](Nc1ncnc2[nH]c(-c3cncc(S(C)(=O)=O)c3)cc12)c1ccc2c(c1)S(=O)(=O)CCC2` ?
272

Suppose we examine the molecule `CCNC(=O)c1cc2c(N[C@@H](c3ccc4c(c3)S(=O)(=O)CCO4)C(C)C)ncnc2[nH]1` ; what microsomal CLint value has been reported?
26

Requested field: microsomal CLint. Item: `CC(C)[C@H](Nc1ncnc2[nH]cc(C(=O)NC3CC3)c12)c1ccc2c(c1)S(=O)(=O)CCC2`
42

May I ask what microsomal CLint has been recorded for `CNCc1cc(-c2cc3c(N[C@@H](c4ccc5c(c4)S(=O)(=O)NCC5)C(C)C)ncnc3[nH]2)co1` ?
42

Bench note: what microsomal CLint did `CNC(=O)Cn1cc(-c2cc3c(N[C@@H](c4ccc5c(c4)OCCO5)C(C)C)ncnc3[nH]2)cn1` show?
47

Record request: microsomal CLint value, item `CC(C)(C)[C@@H](Nc1ncnc2[nH]c(-c3cnn(CC(N)=O)c3)cc12)c1ccc2c(n1)OCCO2`
31

May I ask what microsomal CLint has been recorded for `CC(C)[C@H](Nc1ncnc2[nH]c(-c3cnn(CC(N)=O)c3)cc12)c1ccc2c(n1)OCCO2` ?
5

Consider the molecule shown here: `CC(C)[C@@H](Nc1ncnc2[nH]c(-c3cnn(CC(N)=O)c3)cc12)c1ccc2c(n1)OCCO2` What is its recorded microsomal CLint?
12

I would be grateful if you could share the reported microsomal CLint for `CC(C)[C@@H](Nc1ncnc2[nH]c(-c3cnn(CC(N)=O)c3)cc12)c1ccc2c(c1)NC(=O)CO2` .
11

Given `CC(C)[C@H](Nc1ncnc2[nH]c(-c3cnn(CC(N)=O)c3)cc12)c1ccc2c(c1)S(=O)(=O)CCC2` , state its recorded microsomal CLint.
39

Need microsomal CLint, item `CC(C)[C@@H](Nc1ncnc2[nH]cc(C(N)=O)c12)c1ccc2c(c1)OCCO2`
142

So what's the measured microsomal CLint for this one? `CCNC(=O)c1cc2c(N[C@H](c3ccc4c(c3)OCCO4)C(C)C)ncnc2[nH]1`
48

Would you mind telling me what microsomal CLint value was observed for `CNC(=O)Cn1cc(-c2cc3c(N[C@@H](c4ccc5c(c4)S(=O)(=O)CCC5)C(C)C)ncnc3[nH]2)cn1` ?
77

Given `Cc1nn(C)cc1-c1cc2c(N[C@H](c3ccc4c(c3)S(=O)(=O)CCC4)C(C)C)ncnc2[nH]1` , state its recorded microsomal CLint.
202

Reported microsomal CLint, molecule `CNC(=O)c1cc2c(N[C@@H](c3ccc4c(c3)NC(=O)CO4)C(C)C)ncnc2[nH]1` : ____
20

Which microsomal CLint value belongs to `CNC(=O)c1cc2c(N[C@H](c3ccc4c(c3)S(=O)(=O)CCC4)C(C)C)ncnc2[nH]1` ?
47

Requested field: microsomal CLint. Item: `CC(C)[C@H](Nc1ncnc2[nH]ccc12)c1ccc2c(c1)S(=O)(=O)CCC2`
207

What value of microsomal CLint has been reported for the following molecule? `CCNC(=O)c1cc2c(N[C@@H](c3ccc4c(c3)S(=O)(=O)NCC4)C(C)C)ncnc2[nH]1`
45

Could you share which microsomal CLint value was measured for `CNCc1cc(-c2cc3c(N[C@@H](c4ccc5c(c4)S(=O)(=O)CCC5)C(C)C)ncnc3[nH]2)co1` ?
52

What value of measured microsomal CLint is listed for `CC(C)[C@@H](Nc1ncnc(N)c1Cl)c1ccc2c(c1)S(=O)(=O)CCC2` ?
204

Numbers sourced from ChEMBL document CHEMBL5442168.
